# Test system: T. cruzi epimastigotes (Y strain)
# method description: Trypanocidal activity, proliferation of T. cruzi epimastigotes (MTT)
# Format: cell-based
# run parameters: Trypanosoma cruzi, 96 h, read-out: %ITcP: T. cruzi (epimastigotes) % inhibition proliferation
measurement label: inhibition at 50 µM
Reply with a number, then the unit it belongs to.

molecule	measurement target	endpoint result
COc1cc2c(cc1OC)C(=O)/C(=C/c1ccc(SCc3ccccc3)cc1)C2	T. cruzi epimastigotes (Y strain)	40%
COc1ccc(OC)c2c1C/C(=C\c1ccc(SCc3ccccc3)cc1)C2=O	T. cruzi epimastigotes (Y strain)	18.5%
COc1ccc2c(c1OC)C/C(=C\c1ccc(SCc3ccccc3)cc1)C2=O	T. cruzi epimastigotes (Y strain)	33%
COc1ccc2c(c1)C(=O)/C(=C/c1ccc(SCc3ccccc3)cc1)CC2	T. cruzi epimastigotes (Y strain)	36.2%
O=C(Cn1ccnc1[N+](=O)[O-])NCc1ccccc1 [Bnz, benznidazole, reference compound]	T. cruzi epimastigotes (Y strain)	60%

Report inhibition at 50 µM for each item below.
1. O=C1/C(=C/c2ccc(SCc3ccccc3)cc2)CCc2ccccc21
2. COc1cccc2c1CC/C(=C\c1ccc(SCc3ccccc3)cc1)C2=O

Reply text:
["43.7%", "51.1%"]

###

measurement label: melting point

Report melting point for each item below.
1. COc1ccc(OC)c2c1C/C(=C\c1ccc(OCc3ccccc3)cc1)C2=O [compound 25]
2. COc1ccc2c(c1)CC/C(=C\c1ccc(SCc3ccccc3)cc1)C2=O [compound 34]
3. O=C1/C(=C/c2ccc(SCc3ccccc3)cc2)Cc2ccccc21 [compound 7]
4. O=C1/C(=C/c2ccc(OCc3ccccc3)cc2)Cc2c(Cl)cc(Cl)cc21 [compound 30]

Reply text:
1. 209 to 210 °C
2. 122 to 124 °C
3. 155 to 157 °C
4. 202 to 203 °C

Inquiry: Given the molecule O=C1/C(=C/c2ccc(SCc3ccccc3)cc2)Cc2c(Cl)cc(Cl)cc21 [compound 18] , what is its reported melting point?
Reply text: 181 to 183 °C

Origin of measurements: paper PMC10385825
